From: patent US20230338568A1

- Test system: HER2 positive cell HCC1954
- Experimental protocol: Cytotoxicity of α-ADCs in HER2 positive cell HCC1954 (CellTiter-Glo)
- Format: cell-based, Human
- Stated conditions: HER2 positive HCC1954, 72 h
pIC50: −log10 of the molar value.
Value type: pIC50

[
  {
    "Molecule smiles": "COc1cc2cc(c1Cl)N(C)C(=O)C[C@H](OC(=O)[C@H](C)N(C)C(=O)CCS)[C@]1(C)O[C@H]1[C@H](C)[C@@H]1C[C@@](O)(NC(=O)O1)[C@H](OC)/C=C/C=C(\\C)C2",
    "Value type": "pIC50",
    "Value measured": 8.38
  }
]
